B1: Pistol ribozyme (parent)
chain: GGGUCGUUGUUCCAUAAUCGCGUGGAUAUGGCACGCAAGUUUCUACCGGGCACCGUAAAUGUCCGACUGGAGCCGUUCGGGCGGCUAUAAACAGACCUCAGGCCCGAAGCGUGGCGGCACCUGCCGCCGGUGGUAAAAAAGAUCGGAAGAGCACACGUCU

variants of: B1; assay: aptazyme ON/OFF ratio, guanine; higher = stronger switching; co-transcriptional cleavage with and without guanine
property-name: aptazyme ON/OFF ratio

residue_change="U10G C12U C13G" reported=1.28
residue_change="U7C U8C G9A U10A C12U C13G" reported=1.19
residue_change="U8A U10C U11G C12A C13U" reported=1.25
residue_change="U7C U8A U10A U11A C13U" reported=1.17
residue_change="U7G U8A G9U U10A U11C C12G C13G" reported=1.05
residue_change="U7G U8C G9U U10A C12A" reported=1.88
residue_change="U7A U10A U11G C13U" reported=1.19
residue_change="U7C G9A U10C C12G" reported=1.2
residue_change="U7C G9A U11G C12U C13A" reported=1.35
residue_change="U7A U8A G9A U10G U11C C12U C13G" reported=1.19
residue_change="U7G U8A U10A U11C" reported=0.988
residue_change="U7C U8A G9C U11C C12A" reported=1.11
residue_change="U7G U8A G9U U11C C12U C13U" reported=1.02
residue_change="U7C U8G U11A C12G C13G" reported=1.11
residue_change="U7C U8C G9U U10A U11G C12U C13U" reported=1.14
residue_change="U7G G9U U10A U11C C12U" reported=1.32
residue_change="U7A U8G G9A U10A U11G C13U" reported=1.09
residue_change="U7A U8C U10G C12A C13G" reported=1.05
residue_change="U7G U8C U10C U11C C12G C13A" reported=1.16
residue_change="U7C U8G G9C U10C U11G C13U" reported=1.19
residue_change="U7A U8A U11G C13G" reported=1.1
residue_change="C12G C13U" reported=1.36
residue_change="U7A U8C G9C U10G C12U C13G" reported=1.11
residue_change="U10A U11A C12G" reported=1.83
residue_change="U8G G9A U10A C12A C13U" reported=1.26
residue_change="U7A U8C G9C U10G U11C C12A C13G" reported=1.08
residue_change="U7A U8C G9A U10A U11C C12G" reported=1.21
residue_change="U7C U8C U10G U11C C12G C13U" reported=1.17
residue_change="U7A G9A U10G U11G C12A C13U" reported=1.33
residue_change="U7C G9C U10G U11G C12U C13U" reported=1.12
residue_change="U7G U8A U10G U11G C12A C13G" reported=1.38
residue_change="U7C G9U C12U C13U" reported=1.12
residue_change="U7G G9U U10A U11G C12G C13U" reported=1.25
residue_change="U8G G9A C12A C13G" reported=1.27
residue_change="U7C G9U U10G U11G C13U" reported=1.1
